TARGET_DESC: Ba/F3-EGFR-WT cells (Homo sapiens)
Sequence (P00533 whole entry, looked up, change not shown): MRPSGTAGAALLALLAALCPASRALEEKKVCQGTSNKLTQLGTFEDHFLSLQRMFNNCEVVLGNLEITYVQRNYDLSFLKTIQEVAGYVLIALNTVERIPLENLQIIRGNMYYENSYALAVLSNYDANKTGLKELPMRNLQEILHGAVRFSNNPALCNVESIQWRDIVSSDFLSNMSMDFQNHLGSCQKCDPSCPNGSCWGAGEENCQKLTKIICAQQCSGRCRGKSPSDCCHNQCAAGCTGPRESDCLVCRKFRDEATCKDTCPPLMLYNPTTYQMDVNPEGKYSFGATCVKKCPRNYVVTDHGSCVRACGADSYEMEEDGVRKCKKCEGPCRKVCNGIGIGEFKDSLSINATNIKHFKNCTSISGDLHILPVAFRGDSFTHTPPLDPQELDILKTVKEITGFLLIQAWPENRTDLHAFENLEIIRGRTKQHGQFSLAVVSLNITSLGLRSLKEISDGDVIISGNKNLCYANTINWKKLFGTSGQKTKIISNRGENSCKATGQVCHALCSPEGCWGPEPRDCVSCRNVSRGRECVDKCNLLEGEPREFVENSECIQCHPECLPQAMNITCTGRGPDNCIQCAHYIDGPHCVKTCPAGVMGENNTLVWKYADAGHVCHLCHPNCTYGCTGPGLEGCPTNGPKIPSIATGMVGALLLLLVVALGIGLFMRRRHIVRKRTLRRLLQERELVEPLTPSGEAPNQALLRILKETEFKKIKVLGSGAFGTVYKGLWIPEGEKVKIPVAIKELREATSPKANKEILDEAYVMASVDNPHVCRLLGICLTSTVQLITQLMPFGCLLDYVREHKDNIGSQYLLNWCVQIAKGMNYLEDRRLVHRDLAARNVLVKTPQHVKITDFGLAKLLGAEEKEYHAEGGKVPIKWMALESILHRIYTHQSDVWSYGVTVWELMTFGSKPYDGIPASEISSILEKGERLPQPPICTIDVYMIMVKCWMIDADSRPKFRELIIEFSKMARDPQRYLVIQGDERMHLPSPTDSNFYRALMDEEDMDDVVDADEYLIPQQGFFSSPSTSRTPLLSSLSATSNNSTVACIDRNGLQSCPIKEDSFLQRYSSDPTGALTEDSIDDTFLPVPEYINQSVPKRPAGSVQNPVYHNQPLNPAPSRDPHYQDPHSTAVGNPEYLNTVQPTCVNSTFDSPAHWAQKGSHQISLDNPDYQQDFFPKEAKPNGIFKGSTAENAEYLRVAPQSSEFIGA
PROCEDURE_DETAILS: Ba/F3 cell survival assay, wild type EGFR
Assay type: cell-based
ASSAY_SETUP: Cell Titer-Glo, 48 h, with 10 ng/mL EGF; Table 4; read-out: BA/F3 (wild type) IC50
For each of the molecules below, state its GI50.
Give the figure together with its unit, number first.

[Q] Look at this molecule and give its reported GI50. COc1c(Cl)cccc1Nc1c(-c2ccncc2OC[C@@H]2CCCO2)[nH]c2c1C(=O)NCC2CCC(F)(F)F (single isomer, unassigned) [Example 98]
[A] 444 nM

[Q] GI50 lookup needed for COc1c(Cl)cccc1Nc1c(-c2ccncc2OCC2(C)CCO2)[nH]c2c1C(=O)NCC2CCO (single isomer, unassigned) [Example 21] , thanks.
[A] 943 nM

[Q] Could you tell me which GI50 is on file for COCC(C)Oc1cnccc1-c1[nH]c2c(c1Nc1cccc(Cl)c1OC)C(=O)N[C@H](C)C2 (single isomer, unassigned) [Example 42] ?
[A] 531 nM

[Q] Dear colleague, I am looking for the recorded GI50 of the following molecule: COc1c(Cl)cccc1Nc1c(-c2ccncc2OC[C@@H]2CCCO2)[nH]c2c1C(=O)NCC2CC=C(F)F (single isomer, unassigned) [Example 101]
[A] 603 nM

[Q] So what's the measured GI50 for this one? Cc1c(Cl)cccc1Nc1c(-c2ccncc2OC[C@@H]2COCCO2)[nH]c2c1C(=O)N[C@H](C)C2
[A] 529 nM

[Q] Can you share its GI50? I mean this molecule: COc1c(Cl)cccc1Nc1c(-c2ccncc2OC[C@@H]2CCCO2)[nH]c2c1C(=O)NCC2CCO (single isomer, unassigned) [Example 17]
[A] 1580 nM

[Q] Find the recorded GI50 belonging to COCC(C)Oc1cnccc1-c1[nH]c2c(c1Nc1cccc(Cl)c1OC)C(=O)N[C@@H]1CCC[C@H]21 (single isomer, unassigned) [Example 50] and report it.
[A] 1650 nM

[Q] Reported GI50, molecule COc1c(Cl)cccc1Nc1c(-c2ccncc2OCC(C)(C)OC)[nH]c2c1C(=O)NCC2CCO (single isomer, unassigned) [Example 15] : ____
[A] 895 nM

[Q] Which measured GI50 value corresponds to COc1c(Cl)cccc1Nc1c(-c2ccncc2OCC2CCCCO2)[nH]c2c1C(=O)NCC2C (single isomer, unassigned) [Example 47] ?
[A] 1990 nM

[Q] GI50 lookup needed for COc1c(Cl)cccc1Nc1c(-c2ccncc2OC[C@@H]2COCCO2)[nH]c2c1C(=O)NC1(CC1)C2 , thanks.
[A] 574 nM

[Q] Reported GI50 for COc1c(Cl)cccc1Nc1c(-c2ccncc2OCC2COCCO2)[nH]c2c1C(=O)NCC2C (single isomer, unassigned) [Example 35] : what is it?
[A] 811 nM

[Q] Reported GI50 for COc1c(Cl)cccc1Nc1c(-c2ccncc2OCC2COC(C)(C)CO2)[nH]c2c1C(=O)N[C@H](C)C2 (single isomer, unassigned) [Example 78] : what is it?
[A] 488 nM

====

TARGET_DESC: Bub1 (Homo sapiens)
Construct: catalytic domain of human Bub1 (amino acids 704-1085); His6 (N); made in house; host or cells: insect cells (Hi5)
Sequence (O43683 704-1085): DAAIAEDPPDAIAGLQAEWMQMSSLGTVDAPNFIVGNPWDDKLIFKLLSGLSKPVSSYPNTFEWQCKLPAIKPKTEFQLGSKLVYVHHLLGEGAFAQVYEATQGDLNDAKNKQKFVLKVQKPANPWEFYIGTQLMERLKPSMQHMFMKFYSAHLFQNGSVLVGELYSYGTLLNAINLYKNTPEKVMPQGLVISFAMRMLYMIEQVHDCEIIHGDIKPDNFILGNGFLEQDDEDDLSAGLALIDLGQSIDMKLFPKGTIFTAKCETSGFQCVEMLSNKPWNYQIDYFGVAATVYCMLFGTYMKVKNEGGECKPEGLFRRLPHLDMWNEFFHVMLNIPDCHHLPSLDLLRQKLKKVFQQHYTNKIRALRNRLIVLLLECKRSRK
PROCEDURE_DETAILS: Bub1 high ATP kinase assay (TR-FRET)
Assay type: biochemical
ASSAY_SETUP: Bub1 high ATP (2 mM) IC50, TR-FRET, 2 mM ATP; Table 3
PROPERTY_NAME: IC50 (nM)
Note: unit nM is implicit; provide only the numeric part.

[Q] Which IC50 value belongs to COc1c(Cl)cccc1Nc1c(-c2ccncc2OCC2COCCO2)[nH]c2c1C(=O)NC1(CCC1)C2 (stereo not shown) [Example 123] ?
[A] 439

[Q] Suppose we examine the compound COc1c(Cl)cccc1Nc1c(-c2ccncc2OCC2COCCO2)[nH]c2c1C(=O)N[C@@H]1CCC[C@H]21 (single isomer, unassigned) [Example 54] ; what IC50 value has been reported?
[A] 6190

[Q] Reported IC50, compound COc1c(Cl)cccc1Nc1c(-c2ccncc2OCC2CCCCO2)[nH]c2c1C(=O)NCC2C (single isomer, unassigned) [Example 48] : ____
[A] 9130

[Q] Form field: reported IC50 of COc1c(Cl)cccc1Nc1c(-c2ccncc2OCC2COC(C)(C)CO2)[nH]c2c1C(=O)NC1(CC1)C2 (single isomer, unassigned) [Example 133]
[A] 1650

[Q] Name the recorded IC50 for Cc1c(Cl)cccc1Nc1c(-c2ccncc2OC[C@@H]2CCCO2)[nH]c2c1C(=O)N[C@H](C)C2 [Example 104] .
[A] 3630

[Q] Can you look up the measured IC50 of COc1c(Cl)cccc1Nc1c(-c2ccncc2OC[C@@H]2CN(C)CCO2)[nH]c2c1C(=O)NC1(CC1)C2 [Example 112] for me?
[A] 7830

[Q] Record request: IC50 value, item COc1c(Cl)cccc1Nc1c(-c2ccncc2OC[C@@H]2CCCO2)[nH]c2c1C(=O)NCC2C (single isomer, unassigned) [Example 32]
[A] 3640

[Q] I have this compound here, COc1c(Cl)cccc1Nc1c(-c2ccncc2OCC(C)(C)OC)[nH]c2c1C(=O)NCC2CCO (single isomer, unassigned) [Example 15] , and I need its recorded IC50.
[A] 1390

[Q] Look at this compound and give its reported IC50. Cc1c(Cl)cccc1Nc1c(-c2ccncc2OC[C@@H]2COCCO2)[nH]c2c1C(=O)N[C@H](C)C2 [Example 103]
[A] 1650

[Q] For the compound COc1c(Cl)cccc1Nc1c(-c2ccncc2OCCC2CCCCO2)[nH]c2c1C(=O)NC1(CCC1)C2 (stereo not shown) [Example 128] , what IC50 is on record?
[A] 726

[Q] Report IC50 for COc1c(Cl)cccc1Nc1c(-c2ccncc2OCC(C)OC)[nH]c2c1C(=O)N[C@H](C)C2 (single isomer, unassigned) [Example 82] please.
[A] 2710

[Q] // returns reported IC50 for input Cc1c(Cl)cccc1Nc1c(-c2ccncc2OCC2OCCCC2(F)F)[nH]c2c1C(=O)NCC2C (stereo not shown) [Example 61]
[A] 2700
